Data credit: patent US10494384B2

system_name: 20S proteasome extracted from rat liver (PGPH) (Rattus norvegicus, UniProt P28073+Q9JHW0)
Construct: 20S proteasome extracted from rat liver; from tissue; host or cells: rat liver
test_summary: inhibition of 20S proteasome, PGPH activity (fluorescent peptide)
Type: biochemical
test_context: rat liver 20S proteasome; read-out: IC50 (μM) PGPH
For each record, write down the corresponding IC50.
One number for each entry, in µM.

• CC(C)C[C@H](NC(=O)[C@H](Cc1ccccc1)NC(=O)NCc1ccc(-c2ccccc2)cc1)B(O)O = 0.24

# return recorded IC50 for input CC(C)C[C@H](NC(=O)[C@H](Cc1ccccc1)NC(=O)NCc1cccc2ccccc12)B(O)O 0.12
